src = the Human Domainome abundance scans (Beltran et al. 2025)

B1: POU domain, class 2, transcription factor 1, residues 285 to 354; numbered along this chain, P14859 (parent)
chain: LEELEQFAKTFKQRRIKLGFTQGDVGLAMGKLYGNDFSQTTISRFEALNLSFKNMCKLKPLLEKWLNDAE

Variants of: B1
Test: abundance fitness (aPCA) (normalised: wild type 0, dead -1); higher = more abundant; growth selection in yeast, the domain comes from the species named
Settings: Homo sapiens
Class assignment keyed on abundance fitness, ranges Low (below -0.1), Mid (-0.1 to below -0.002), High (-0.002 or more)

[[record]]
change = "Q22C"
category = "High"

[[record]]
change = "A47E"
category = "High"

[[record]]
change = "F45M"
category = "Low"

[[record]]
change = "G23T"
category = "Mid"

[[record]]
change = "M29A"
category = "Low"

[[record]]
change = "E63R"
category = "Low"

[[record]]
change = "M29C"
category = "Mid"

[[record]]
change = "K53I"
category = "High"

[[record]]
change = "S43W"
category = "Mid"

[[record]]
change = "T21P"
category = "Low"

